Test: Inhibition of yeast alpha-D-glucosidase
pKi: −log10 of the molar value.
MEASUREMENT KIND: pKi

(a) O[C@H]1[C@H](O)CN[C@H]1O
(b) OC[C@H]1NC(O)[C@H](O)[C@@H](O)[C@@H]1O (some centres not stated)
input: Given the listed items, does a or b have the lesser reported pKi? Response format: the label of the selected entry.
output: b
